Listing of entries alongside the reported folding enthalpy.
assay: folding enthalpy; higher = less favourable; fluorescence melt of hairpins on a sequencing array, two-state fit; settings: sodium 0.088 M
Give the value in kcal/mol but do not write kcal/mol after it.

[
  {
    "RESIDUE_CODES": "GCGATGCTTCGC ((((....))))",
    "MEASURE_UNIT": "kcal/mol",
    "folding enthalpy": -20.2
  }
]

Item under review: GGGAGGGGAAACCCTTCC ((.((((....)))).)) . Reported folding enthalpy? -32.4

Which folding enthalpy is listed for GGTGATCGAAAGATAACC (((.(((....))).))) ? -29.5

folding enthalpy for GAGGGAGGAAACTCCCCC (.(((((....))))).) ? -10.5

Field request: folding enthalpy | item: GCTGACGAAAGTCTTAGC ((((((....)))..))) -22.6

Look up folding enthalpy: GCTGACGAAAGTCTCAGC ((((((....)))..))) -20.9

Report folding enthalpy for GCATGCGAAAGCACATGC ((((((....)))..))) please. -19

Hello, the source for this data is the array DNA melting data of Ke et al. (doi:10.1101/2024.01.08.574731), in case you need it.
